tested on: enterococci; assay: Minimum inhibitory concentration, microdilution broth method, enterococci; assay type: cell-based; conditions: Enterococcus faecalis, E. faecalis GC 2242; Mueller-Hinton broth, 18-22 hours at 35° C.; read-out: MIC E. faecalis GC 2242
Reported MIC by item:
Numeric only. Scale: µg/mL

>>> endpoint_result("COc1ccccc1-c1ccc(/C=C2\\OC(=O)C(c3ccc(Cl)c(Cl)c3)=C2O)cc1OC")
16
>>> endpoint_result("CC(=O)c1ccccc1-c1ccc(/C=C2\\OC(=O)C(c3cc(Cl)cc(Cl)c3)=C2O)cc1C")
2
>>> endpoint_result("O=C1O/C(=C\\c2cccc3ccccc23)C(O)=C1c1cccc2ccccc12")
32

State the recorded MIC for this entry: CC(C)(C)c1ccc(-c2ccc(C3=C(O)/C(=C/c4cccc(C(F)(F)F)c4Cl)OC3=O)cc2)cc1 4

Now consider O=C1O/C(=C\c2ccc(N3CCOCC3)c3ccccc23)C(O)=C1c1cc(Cl)cc(Cl)c1 and answer again. 16

Now consider O=C1O/C(=C\c2cccc3ccccc23)C(O)=C1c1ccc(C(F)(F)F)cc1 and answer again. 4

Now consider O=C1O/C(=C\c2ccc3ccccc3c2)C(O)=C1c1cccc2ccccc12 and answer again. 8

Now consider O=C1O/C(=C\c2cccc(C(F)(F)F)c2Cl)C(O)=C1c1ccc(-c2ccccc2)c(F)c1 and answer again. 0.5

Now consider Cc1ccccc1C1=C(O)/C(=C/c2ccc(-c3ccccc3C)cc2)OC1=O and answer again. 8

Now consider O=C1O/C(=C\c2ccc(-c3ccccc3)cc2)C(O)=C1c1cccc2ccccc12 and answer again. 8

Now consider O=C1O/C(=C\c2cc(C(F)(F)F)ccc2F)C(O)=C1c1ccc(-c2ccccc2)c(F)c1 and answer again. 2

Now consider O=C1O/C(=C\c2ccc(-c3ccccc3)cc2)C(O)=C1c1ccc(Cl)cc1 and answer again. 4

Now consider CC(C)(C)c1ccc(-c2ccc(C3=C(O)/C(=C/c4cc(C(F)(F)F)ccc4Cl)OC3=O)cc2)cc1 and answer again. 2

Now consider COc1ccccc1-c1ccc(/C=C2\OC(=O)C(c3cc(Cl)cc(Cl)c3)=C2O)cc1OC and answer again. 8
